- experimentalTarget: Oxysterols receptor LXR-alpha (Homo sapiens)
- Sequence (Q13133 whole entry): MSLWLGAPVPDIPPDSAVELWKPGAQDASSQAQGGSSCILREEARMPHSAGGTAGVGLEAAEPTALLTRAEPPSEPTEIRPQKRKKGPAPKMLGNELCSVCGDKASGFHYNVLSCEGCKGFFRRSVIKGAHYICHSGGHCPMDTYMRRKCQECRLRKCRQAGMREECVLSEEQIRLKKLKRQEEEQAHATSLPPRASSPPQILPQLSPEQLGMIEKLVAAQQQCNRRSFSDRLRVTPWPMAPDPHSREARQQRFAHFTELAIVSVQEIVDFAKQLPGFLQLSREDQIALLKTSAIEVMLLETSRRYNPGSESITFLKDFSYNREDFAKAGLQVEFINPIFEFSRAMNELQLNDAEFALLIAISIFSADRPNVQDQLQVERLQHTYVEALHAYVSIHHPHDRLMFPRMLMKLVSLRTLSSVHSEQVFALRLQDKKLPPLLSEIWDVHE
assayReadout: pKd
Answers are plain numbers, as −log10 of the molar value.

>>> quantitativeresult("COc1ccc2c(C[C@@H]3NC(=O)[C@@H]4CCCN4C3=O)c(CC=C(C)C)[nH]c2c1 [TRYPROSTATIN A]")
7.99

Request body: readout pKd, system Oxysterols receptor LXR-alpha (Homo sapiens), query `COc1ccc2c3c([nH]c2c1)[C@H](C=C(C)C)N1C(=O)[C@@H]2CCCN2C(=O)[C@]1(O)[C@H]3O` . Return the value.
8.25
